Recorded values, source PubChem BioAssay (NCATS).

Tested on: CAOV3
Experiment: Primary qHTS to identify gynecologic anti-cancer compounds using libraries of approved drugs and bioactive compounds (AID 1345084); also: nearly all actives have a fitted effect of over 55% in size
Settings: Gynecologic cancer cell panel viability, ATPlite luminescence, 48 h; series mostly up to 57.5 µM
Records with an inconclusive call do not appear. Activity calls are given as the source filed them. Calls follow the shape of the dose curve; as a rule, active = well fitted cell-killing curve with a large enough effect; inconclusive = small, poorly fitted or top-dose-only effect, or effect the other way; inactive = flat fitted curve, though single readings scatter.
Outcome (select one): active, inactive

Could you kindly confirm the outcome this assay logged for "Cn1ncc2cc(-c3cnc(N)c(Cl)c3N3CCC4(CCNC4=O)CC3)ccc21" ?
inactive

Which outcome was assigned to CCC(C)c1ccc(NC(=O)Cn2cnc3c2c(=O)n(C)c(=O)n3C)cc1 (configuration not stated) in this test?
inactive

Record request — test call for "COc1ccc([C@H]2OC[C@H]3O[C@@H](O[C@H]4[C@@H]2NC[C@@H]4O)[C@H](O)[C@H]3O)cc1"
active

Could you check what this test reported for CCC(C)C(=O)O[C@H]1[C@@H](OC(=O)c2ccoc2)C[C@](C)(O)[C@]23OC(C)(C)[C@H](C[C@H](OC(=O)c4ccoc4)[C@]12COC(C)=O)[C@H]3OC(C)=O (some centres not stated) ?
inactive

Look up the recorded call for "C/C=C/[C@@H]1C=C[C@@H]2C[C@H](C)CC[C@H]2[C@]1(C)/C(O)=C1/C(=O)[C@@H](CO)N(C)C1=O" in this test.
inactive

Can you look up the reported call for "O=C(NCc1ccccc1-c1ccccc1C(=O)NCCc1ccccn1)OCc1ccccc1" for me?
inactive

Which outcome did this test record for the compound COc1ccccc1-c1ccc(-c2cn(C(=O)N3CCCCC3Cc3ccccc3)nn2)cc1 (configuration not stated) ?
inactive

Fill in: this test's call for "CCN1CCC[C@@H]1CNC(=O)c1ccc2c(c1)NC(=O)c1cccc(C)c1S2" is ___
inactive

Short answer needed: outcome of this test for "CCOC(=O)c1cnn(-c2ccccc2)c1NC(=O)c1cc2nc(-c3ccco3)cc(C(F)(F)Cl)n2n1" ?
inactive

Fill in: this test's call for "C#CCOc1ccc2c(c1)c(-c1ccc(C(C)C)cc1)nc(=O)n2C(C)C" is ___
inactive

Assay outcome for C=C1C(=O)OC2/C=C(\C)CC/C=C(\C=O)C(OC)C(OC(=O)C(C)CC)C12 (configuration not stated) : what was it?
inactive

# fetch the recorded call for "CCNC1(C(N)=O)CN(c2nc(C)nc3c(-c4ccc(Cl)cc4)c(-c4ccccc4Cl)nn23)C1" here
inactive

Assay result, entry "C=C(C)Cn1c(SCC(=O)c2cccs2)nc2sc3c(c2c1=O)CCCC3" — outcome?
inactive

Which outcome was entered for the compound "Nc1nc(OCc2cc(Br)cs2)c2[nH]cnc2n1" in this test?
inactive

Call for entry "CC(=O)O[C@@H]1C[C@@]23C[C@@]24CC[C@H](O[C@@H]2OC[C@H](O)[C@H](O)[C@H]2O)C(C)(C)[C@@H]4CC[C@H]3[C@]2(C)[C@@H](O)C34O[C@H](C[C@@H](C)[C@@H]3[C@@]12C)[C@@H](C(C)(C)O)O4" :
inactive

Name the outcome recorded for CC1(C=O)CCCC2(C)C1CCC13CC(CO)C(CCC12)C3 (configuration not stated) in the assay.
inactive

Record request — test call for "Nc1nccc(-c2c(-c3ccc(F)cc3)ncn2C2CCCCC2)n1"
inactive
